Tested on: MCF-7 cells
Test: Apoptosis by DAPI staining (Example 8)
Assay type: cell-based, human
Conditions: Homo sapiens, MCF7, 72 h, 5% serum, DAPI staining at three day treatment
Description: MDA-MB-435 and MCF-7 cells at 1.5×10^5/well in 12 well plates for apoptosis and 1.5×10^4/well in 96 well plates for DNA synthesis arrest were incubated overnight in culture media and treated with α-tocopherol, α-tocotrinel, compound 1, 6-0-carboxymethyl alpha-tocotrienol (6-0-CM-α-T, 44), and vitamin E succinate (VES) at different concentrations in experimental media (2% serum for MDA-MB-435 cells and 5% serum for MCF-7 cells). […]
List of EC50 values.
Just the number please, in µM, no unit attached.

CC(C)=CCC/C(C)=C/CC/C(C)=C/CC[C@]1(C)CCc2c(C)c(OCC(=O)O)c(C)c(C)c2O1 = 10

What value of EC50 has been reported for the following molecule? Cc1c(C)c2c(c(C)c1OCC(=O)O)CC[C@@](C)(CCC[C@H](C)CCC[C@H](C)CCCC(C)C)O2
36

---

Test system: MDA-MB-231
Experiment: Bioassay for apoptosis (apoptotic EC50)
Assay type: cell-based, human
Conditions: MDA-MB-231; unit not given; in µg/mL
Quick list: apoptotic EC50 per entry.

Illustrative cases are given below, each with its answer.
Cc1c(C)c2c(c(C)c1OC(=O)CCC(=O)O)CC[C@@](C)(CCC[C@H](C)CCC[C@H](C)CCCC(C)C)O2 [VES, RRR-α-tocopherol succinate, reference compound] = 5-10
Cc1c(C)c2c(c(C)c1OCCCC(=O)O)CC[C@@](C)(CCC[C@H](C)CCC[C@H](C)CCCC(C)C)O2 [Compound 3] = 5-10
Cc1c(C)c2c(c(C)c1OCCC(=O)O)CC[C@@](C)(CCC[C@H](C)CCC[C@H](C)CCCC(C)C)O2 [Compound 2] = 10-20

Here's the next entry for you.
apoptotic EC50 lookup needed for Cc1c(C)c2c(c(C)c1OCC(=O)O)CC[C@@](C)(CCC[C@H](C)CCC[C@H](C)CCCC(C)C)O2 [Compound 1] , thanks.
5-10

---

Test system: RL-95-2
Assay: Bioassay for apoptosis (apoptotic EC50)
Type: cell-based, human
Conditions: Homo sapiens, RL95-2, RL-95-2; unit inferred
Metric name: EC50

Known results for compounds:
Cc1c(C)c2c(c(C)c1OCC(=O)O)CCC(C)(C)O2 [Compound 14] = > 20 µg/mL
CC(C)=CCC/C(C)=C\C=C/[C@]1(C)CCc2c(C)c(OCC(=O)O)c(C)c(C)c2O1 [Compound 26] = 20 to 30 µg/mL

Now look at this entry.
Can you share its EC50? I mean this compound: Cc1c(C)c2c(c(C)c1OCC(N)=O)CC[C@@](C)(CCC[C@H](C)CCC[C@H](C)CCCC(C)C)O2 [Compound 10]
> 20 µg/mL

---

Tested on: MCF-7
Assay: Bioassay for apoptosis (apoptotic EC50)
Format: cell-based, human
Details: Homo sapiens, MCF7, MCF-7; unit inferred
Metric name: EC50

CCCCCCCCCCCCCCCCC[C@]1(C)CCc2c(C)c(OCC(=O)O)c(C)c(C)c2O1 [Compound 25] = > 20 µg/mL

Give EC50 (MCF-7) of the following compound: Cc1c(C)c2c(c(C)c1OCC(=O)N(CC(=O)O)CC(=O)O)CC[C@@](C)(CCC[C@H](C)CCC[C@H](C)CCCC(C)C)O2 [Compound 12]
5 to 10 µg/mL

Enter reported EC50 observed with MCF-7 for Cc1c(C)c2c(c(C)c1OCC(=O)O)C=C[C@@](C)(CCC[C@H](C)CCC[C@H](C)CCCC(C)C)O2 [Compound 20]
5 to 10 µg/mL

Find EC50 (MCF-7) for the entry CCCCCCCCCCCCC[C@]1(C)CCc2c(C)c(OCC(=O)O)c(C)c(C)c2O1 [Compound 24]
> 20 µg/mL

Hi! What's the reported EC50 for Cc1c(C)c2c(c(C)c1OCC(N)=O)CC[C@@](C)(CCC[C@H](C)CCC[C@H](C)CCCC(C)C)O2 [Compound 10] on MCF-7?
> 20 µg/mL

Form: Entry = Cc1c(C)c2c(c(C)c1OCC(=O)O)CC[C@](C)(C(=O)O)O2 [Compound 16] | System = MCF-7 | EC50 = ____
> 20 µg/mL

What value of EC50 on MCF-7 does C/C(=C\CSc1cc(C)c(OCC(=O)O)c(C)c1C)CCCC(C)CCCC(C)CCCC(C)C (centres unmarked) [Compound 27] have?
10 to 20 µg/mL

Find EC50 (MCF-7) for the entry CC(C)=CCC/C(C)=C/C=C/C(C)=C/[C@]1(C)CCc2c(C)c(OCC(=O)O)c(C)c(C)c2O1 [Compound 18]
> 20 µg/mL
